- TARGET_SYSTEM: JUN1 fragment of c-Jun (UniProt P05412)
- ASSAY_PROCEDURE: cell-based or functional assay
OBSERVATION_TYPE: decrease in growth of yeast on HTU media (reverse two-hybrid)

>>> result("RSDYKDDDDKAYQSIRSGGIESSSKRER [SEQ ID NO 56]")
"> 50%"
>>> result("SEQ ID NO 34 (peptide) peptide: RSDYKDDDDKTYQSIKGPENKVKMYFLNDLNFSRRDAGFKARKDALDIASDYENISVVNIPLWGGVVQRIISSVKLSTFLCGLENKDVLIFNFPMAKPFWHILSFFHRLLKFRIVLLIDDKPCRRRPCSLTWYQLMHRYRY")
"> 50%"
>>> result("RSDYKDDDDKAYQSIIANEEEREKNFASSKKDGSYTDLL [SEQ ID NO 30]")
"> 50%"

Where these numbers come from: patent US20110053831A1
